# Test system: E. coli O157:H7 strain EDL933
# CONDITION: E. coli O157:H7 EDL933; 24 h incubation; aliquots plated on MHA, no viable colonies
Numbered stars: 1 amine (or outer) side, 2 acyl side, 3 side chain; on linkers, the order of the positions; unused ones are H or OH. Square brackets hold non-standard residues; d marks the D form. Side chains are listed from the residue outwards. Peptide text beside a SMILES is read from it. * marks the point of attachment. d(εLys) = N[C@H](CCCCN[*:1])C(=O)[*:2]; εLys = N[C@@H](CCCCN[*:1])C(=O)[*:2]; Fmoc = O=C(OCC1c2ccccc2-c2ccccc21)*
RESULT TYPE: MBC (µg/mL)
Report as a plain number; the unit µg/mL is understood.

Consider the following illustrative entries.
>>> result_number("NCCCC[C@@H](NC(=O)[C@@H](CCCCN)NC(=O)[C@H](Cc1ccc(O)cc1)NC(=O)[C@H](CCCCNC(=O)[C@H](Cc1ccc(O)cc1)NC(=O)[C@@H](CCCCN)NC(=O)[C@H](N)CCCCNC(=O)OCC1c2ccccc2-c2ccccc21)NC(=O)[C@H](Cc1ccc(O)cc1)NC(=O)[C@@H](CCCCN)NC(=O)[C@H](N)CCCCNC(=O)OCC1c2ccccc2-c2ccccc21)C(N)=O [FDTP, Fmoc-(kkY)3K] (H-[dK](Fmoc)[dK]YK([Tyr-dK-d(εLys)-Fmoc])Y[dK][dK]-NH2)")
31.25
>>> result_number("NCCCC[C@H](NC(=O)[C@H](CCCCN)NC(=O)[C@H](Cc1ccc(O)cc1)NC(=O)[C@H](CCCCNC(=O)[C@H](Cc1ccc(O)cc1)NC(=O)[C@H](CCCCN)NC(=O)[C@@H](N)CCCCNC(=O)OCC1c2ccccc2-c2ccccc21)NC(=O)[C@H](Cc1ccc(O)cc1)NC(=O)[C@H](CCCCN)NC(=O)[C@@H](N)CCCCNC(=O)OCC1c2ccccc2-c2ccccc21)C(N)=O [FTP, Fmoc-(KKY)3K] (H-K(Fmoc)KYK([Tyr-Lys-εLys-Fmoc])YKK-NH2)")
125

Next:
Fill in MBC for record NCCCC[C@@H](N)C(=O)N[C@H](CCCCN)C(=O)N[C@@H](Cc1ccc(O)cc1)C(=O)NCCCC[C@H](NC(=O)[C@H](Cc1ccc(O)cc1)NC(=O)[C@@H](CCCCN)NC(=O)[C@H](N)CCCCN)C(=O)N[C@@H](Cc1ccc(O)cc1)C(=O)N[C@H](CCCCN)C(=O)N[C@H](CCCCN)C(N)=O [DTP, (kkY)3K] (H-[dK][dK]YK([Tyr-dK-dK])Y[dK][dK]-NH2)
1000

* * *

# MEASUREMENT PROTOCOL: Critical aggregation concentration by ANS fluorescence probe assay
# Type: physicochemical
# CONDITION: emission 486 nm, breakpoint of I/I0 vs log(c/wt %), aqueous solution in ultrapure water, pH 6.5
Numbered stars: 1 amine (or outer) side, 2 acyl side, 3 side chain; on linkers, the order of the positions; unused ones are H or OH. Square brackets hold non-standard residues; d marks the D form. Side chains are listed from the residue outwards. Peptide text beside a SMILES is read from it. * marks the point of attachment. d(εLys) = N[C@H](CCCCN[*:1])C(=O)[*:2]; εLys = N[C@@H](CCCCN[*:1])C(=O)[*:2]; Fmoc = O=C(OCC1c2ccccc2-c2ccccc21)*
RESULT TYPE: Critical aggregation concentration (CAC)
Write down the value, and be sure its unit follows.

Observe how each entry below is paired with its result.
>>> result("NCCCC[C@@H](N)C(=O)N[C@H](CCCCN)C(=O)N[C@@H](Cc1ccc(O)cc1)C(=O)NCCCC[C@H](NC(=O)[C@H](Cc1ccc(O)cc1)NC(=O)[C@@H](CCCCN)NC(=O)[C@H](N)CCCCN)C(=O)N[C@@H](Cc1ccc(O)cc1)C(=O)N[C@H](CCCCN)C(=O)N[C@H](CCCCN)C(N)=O [DTP, (kkY)3K] (H-[dK][dK]YK([Tyr-dK-dK])Y[dK][dK]-NH2)")
"0.0069 ± 0.002 wt %"
>>> result("NCCCC[C@H](NC(=O)[C@H](CCCCN)NC(=O)[C@H](Cc1ccc(O)cc1)NC(=O)[C@H](CCCCNC(=O)[C@H](Cc1ccc(O)cc1)NC(=O)[C@H](CCCCN)NC(=O)[C@@H](N)CCCCNC(=O)OCC1c2ccccc2-c2ccccc21)NC(=O)[C@H](Cc1ccc(O)cc1)NC(=O)[C@H](CCCCN)NC(=O)[C@@H](N)CCCCNC(=O)OCC1c2ccccc2-c2ccccc21)C(N)=O [FTP, Fmoc-(KKY)3K] (H-K(Fmoc)KYK([Tyr-Lys-εLys-Fmoc])YKK-NH2)")
"0.0113 ± 0.005 wt %"
>>> result("NCCCC[C@@H](NC(=O)[C@@H](CCCCN)NC(=O)[C@H](Cc1ccc(O)cc1)NC(=O)[C@H](CCCCNC(=O)[C@H](Cc1ccc(O)cc1)NC(=O)[C@@H](CCCCN)NC(=O)[C@H](N)CCCCNC(=O)OCC1c2ccccc2-c2ccccc21)NC(=O)[C@H](Cc1ccc(O)cc1)NC(=O)[C@@H](CCCCN)NC(=O)[C@H](N)CCCCNC(=O)OCC1c2ccccc2-c2ccccc21)C(N)=O [FDTP, Fmoc-(kkY)3K] (H-[dK](Fmoc)[dK]YK([Tyr-dK-d(εLys)-Fmoc])Y[dK][dK]-NH2)")
"0.0123 ± 0.003 wt %"

Kindly review the next compound as well.
Identify Critical aggregation concentration (CAC) associated with the compound NCCCC[C@H](NC(=O)[C@H](CCCCN)NC(=O)[C@H](Cc1ccc(O)cc1)NC(=O)[C@H](CCCCNC(=O)[C@H](Cc1ccc(O)cc1)NC(=O)[C@H](CCCCN)NC(=O)[C@@H](N)CCCCN)NC(=O)[C@H](Cc1ccc(O)cc1)NC(=O)[C@H](CCCCN)NC(=O)[C@@H](N)CCCCN)C(N)=O [TP, (KKY)3K] (H-KKYK([Tyr-Lys-Lys])YKK-NH2)
0.0065 ± 0.004 wt %

* * *

# Tested on: S. aureus (ATCC 12600)
# CONDITION: ATCC 12600, 24 h
Numbered stars: 1 amine (or outer) side, 2 acyl side, 3 side chain; on linkers, the order of the positions; unused ones are H or OH. Square brackets hold non-standard residues; d marks the D form. Side chains are listed from the residue outwards. Peptide text beside a SMILES is read from it. * marks the point of attachment. d(εLys) = N[C@H](CCCCN[*:1])C(=O)[*:2]; εLys = N[C@@H](CCCCN[*:1])C(=O)[*:2]; Fmoc = O=C(OCC1c2ccccc2-c2ccccc21)*
RESULT TYPE: MBC (µg/mL)
Entry rule: numbers only, all in µg/mL.

>>> result_number("NCCCC[C@@H](NC(=O)[C@@H](CCCCN)NC(=O)[C@H](Cc1ccc(O)cc1)NC(=O)[C@H](CCCCNC(=O)[C@H](Cc1ccc(O)cc1)NC(=O)[C@@H](CCCCN)NC(=O)[C@H](N)CCCCNC(=O)OCC1c2ccccc2-c2ccccc21)NC(=O)[C@H](Cc1ccc(O)cc1)NC(=O)[C@@H](CCCCN)NC(=O)[C@H](N)CCCCNC(=O)OCC1c2ccccc2-c2ccccc21)C(N)=O [FDTP, Fmoc-(kkY)3K] (H-[dK](Fmoc)[dK]YK([Tyr-dK-d(εLys)-Fmoc])Y[dK][dK]-NH2)")
62.5

Pending molecule:
Tell me measured MBC for NCCCC[C@H](NC(=O)[C@H](CCCCN)NC(=O)[C@H](Cc1ccc(O)cc1)NC(=O)[C@H](CCCCNC(=O)[C@H](Cc1ccc(O)cc1)NC(=O)[C@H](CCCCN)NC(=O)[C@@H](N)CCCCNC(=O)OCC1c2ccccc2-c2ccccc21)NC(=O)[C@H](Cc1ccc(O)cc1)NC(=O)[C@H](CCCCN)NC(=O)[C@@H](N)CCCCNC(=O)OCC1c2ccccc2-c2ccccc21)C(N)=O [FTP, Fmoc-(KKY)3K] (H-K(Fmoc)KYK([Tyr-Lys-εLys-Fmoc])YKK-NH2) please.
250

* * *

# System: E. coli O157:H7 strain EDL933
# CONDITION: E. coli O157:H7 EDL933; 24 h incubation; aliquots plated on MHA, no viable colonies
Side chains are listed from the residue outwards. Peptide text beside a SMILES is read from it.
RESULT TYPE: MBC

Report measured MBC; entry is NCCCC[C@H](NC(=O)[C@H](CCCCN)NC(=O)[C@H](Cc1ccc(O)cc1)NC(=O)[C@H](CCCCNC(=O)[C@H](Cc1ccc(O)cc1)NC(=O)[C@H](CCCCN)NC(=O)[C@@H](N)CCCCN)NC(=O)[C@H](Cc1ccc(O)cc1)NC(=O)[C@H](CCCCN)NC(=O)[C@@H](N)CCCCN)C(N)=O [TP, (KKY)3K] (H-KKYK([Tyr-Lys-Lys])YKK-NH2)
> 1000 µg/mL

Cited source for all entries: paper PMC11752523
